Let's look at some compounds and their measured melting point.

Examples with their reported melting point follow.
COc1cc([N+](=O)[O-])c(F)cc1Br	74 to 76 °C
CC(C)(C#N)Cc1ccc(CC(C)(C)C#N)cc1	192 to 194 °C
OC(c1nnn[nH]1)c1ccccc1Cl (racemic)	130 to 132 °C
CCOC(=O)c1[nH]c2cc(Br)c(Cl)cc2c1-c1ccccc1F	193 to 194 °C
CC(=O)c1ccc(OCCOc2ccc3ccccc3c2)c(Cl)c1	164 to 166 °C
C=CCOc1ccccc1C1C(C(=O)OCC)=C(C)NC(C#N)=C1C(=O)OCC (stereo unspecified)	143 to 145 °C
Clc1[nH]ncc1-c1csc(Nc2ccccn2)n1	299 to 304 °C
CCOCCc1ccc(OCCNc2nc(C)nc(C)c2Cl)c(C)c1	61 to 63 °C
Clc1nc(Cl)c2occc2n1	107 °C
COc1ccc(COC(=O)CC(=O)Oc2cc(-c3cn4c(n3)sc3ccccc34)ccc2Cl)cc1	113 to 115 °C

Could you now consider this next compound?
Return melting point (reported value) for this compound: Cc1ccc(C(F)C(F)(F)S(=O)(=O)c2ccccc2)cc1 (stereo unspecified)
80 to 82 °C

====

readout_name: melting point (°C)
Just the number please, in °C, no unit attached.

CCn1c(=O)c2c(nc(/C=C/c3ccc(O)c(O)c3)n2C)n(CC)c1=O	248

Could you now consider this next compound?
Return melting point (reported value) for this compound: CCOC(=O)COc1ccc(-c2nc3ncccc3[nH]2)c(OC)c1
198

====

Let's look at some compounds and their measured melting point.

Examples with their reported melting point follow.
Cc1cc(O)c(O)c(O)c1	114 to 121 °C
CN1C(=O)C2C3C=CC(CCC3)C2(c2ccc(Cl)c(Cl)c2)C1=O (stereo not given)	110 to 115 °C
O=C1Nc2cccc(-c3cccc(Cl)c3)c2/C1=C/c1ccc[nH]1	165 to 167 °C
CNC(=O)c1cccc(Cl)c1Nc1nc(Nc2ccc3c(c2)CCC(N2CCC(N4CCN(C)CC4)CC2)CC3)ncc1Cl (stereo not given)	171 to 175 °C

Could you now consider this next compound?
Return melting point (reported value) for this compound: Cc1cc(C)c2c(n1)[nH]c(=O)c1ccccc12
276 to 278 °C

====

Let's look at some compounds and their measured melting point.

Examples with their reported melting point follow.
Clc1ccc2c(-n3cncn3)ccnc2c1	169 to 170 °C
Nc1cc(O)nc(SCc2c(F)cccc2F)n1	245 to 246 °C
NC(CC1c2ccccc2Sc2ccccc21)(C(=O)O)c1ccc(C(=O)O)cc1 (stereo not given)	251 °C
CSc1nn2c(N3CCOCC3)cc(C)nc2c1S(=O)(=O)c1ccccc1	206 to 208 °C

Could you now consider this next compound?
Return melting point (reported value) for this compound: COC(=O)c1cccc([N+](=O)[O-])c1CS(=O)(=O)NC(=O)Nc1nc(OC)cc(OC)n1
177 to 181 °C

====

readout_name: melting point

CCOC(=O)c1c(N2CCCC2)c2cccnc2n(C)c1=O	118 to 120 °C
O=S(=O)(c1ccc(Br)cc1)N1CCCC1c1ccc(F)cc1 (racemic)	131 °C
CC12CCC(=O)NC1CCc1cc(-c3cccc([N+](=O)[O-])c3)ccc12 (single isomer, unassigned; (+))	223 to 225 °C
CCCCCCCCCCOc1cc(O)cc(C(=O)OC)c1	92 to 94 °C
CC(=NO)C(C)(C)NCC(CNC(C)(C)C(C)=NO)CC(O)Cn1ccnc1[N+](=O)[O-] (centres undefined)	185 to 187 °C

Return melting point (reported value) for this compound: CNN(NC)C(=S)Oc1cc(C)ccc1C(=O)OC
99.9 to 100 °C

Return melting point (reported value) for this compound: O=Cc1ccc(OC2CCN(C(=O)OCC3c4ccccc4-c4ccccc43)CC2)cc1
106 to 108 °C

Return melting point (reported value) for this compound: CCOC(=O)C(C#N)C(=O)c1nn(-c2ccccc2)c2c1CSc1ccccc1-2 (centres undefined)
176 to 178 °C

Return melting point (reported value) for this compound: O=C1[C@H]2CCC[C@H]2N(C(=O)CCCCl)c2ccccc2N1Cc1ccccc1 (relative stereo)
169 to 170 °C

====

Let's look at some molecules and their measured melting point.

Examples with their reported melting point follow.
COc1cccc(OC)c1C(=O)Nc1nnc(-c2ccc(Cl)cc2)s1	238 to 240 °C
O=Cc1c(Cl)ccc(F)c1Cl	63 to 65 °C
Cc1cc(-c2nc3cccnn3c2-c2ccnc(NC(=O)CCS(C)(=O)=O)c2)ccc1F	227 to 228 °C
COCCOc1ccc(CCC(=O)NS(=O)(=O)c2ccc(OC)cc2)c(Oc2ncc(C(F)(F)F)cc2Cl)c1	118 to 120 °C
CC(C)(C#N)NC(=O)Sc1ccccc1	152 to 155 °C

Could you now consider this next molecule?
Return melting point (reported value) for this molecule: CCNn1cc(C(=O)O)c(=O)c2cc(F)c(N3CCNCC3)cc21
289 to 291 °C

====

readout_name: melting point

Examples with their reported melting point follow.
CCCn1ncc2c(=O)[nH]c(-c3cc(S(=O)(=O)Cl)ccc3OCC)nc21	177 to 180 °C
CCc1cccc(Nc2ncnc3cc(OCc4ccccc4)c(OCCOC)cc23)c1	156 to 157 °C
Cc1c(C(=O)O)nnn1Cc1c(F)cccc1F	166 to 167 °C
CCOC(=O)Cc1ccc(-c2nc(COc3ccc(COc4nn(-c5ccccc5)cc4/C=C/c4nc(CC)sc4C)cc3OC)c(C)o2)cc1	127 to 128 °C

Could you now consider this next molecule?
Return melting point (reported value) for this molecule: CCCc1c(OC(C)=O)cc2oc3cc(Cl)cn3c(=O)c2c1OC(C)=O
178 to 179 °C

====

readout_name: melting point

Examples with their reported melting point follow.
Cc1cccc(-c2[nH]c(C(C)C)nc2-c2ccc(F)c(-c3ccc(S(C)(=O)=O)nc3)c2)n1	102 to 105 °C
O=C(O)c1ccc(CCCc2ccccc2CCc2ccccc2)cc1	97 to 98 °C
COc1ccc(C2=CCOCC2)cc1[N+](=O)[O-]	117 to 120 °C
CCCCCCCCCCCCCN(O)C(=O)N(C)C	57 to 58 °C
CN(C)C(=S)Sc1sn(CCc2ccccc2)c(=O)c1Cl	125 to 127 °C
N#CC(c1ccccc1)(c1ccccc1)C1CCCN(CCc2ccc(Cl)c(Cl)c2)C1 (configuration not stated)	139 to 142 °C

Return melting point (reported value) for this compound: Cc1cc(C(F)(F)C(F)(F)F)ccc1NC(=O)c1cccc(I)c1C(=O)NC(C)C
195 to 196 °C

Return melting point (reported value) for this compound: CCCCOc1cc(CCC(=O)O)ccc1-c1cccc(CN(C)C(=O)c2ccc(OC)cc2)c1
39 to 41 °C

====

Let's look at some compounds and their measured melting point.

Examples with their reported melting point follow.
O=C(O)COc1ccc(S(=O)(=O)C(Br)(Br)Br)cc1	238 to 246 °C
O=C1c2cccc3cc4ccccc4c(c23)C(=O)N1CCCNCCCNCCCN1C(=O)c2cccc3cc4ccccc4c(c23)C1=O	140 °C
COc1cc(Nc2c(C#N)cnc3cc4ccccc4cc23)c(C)cc1Cl	195 to 197 °C

Return melting point (reported value) for this compound: Clc1ccc2c(c1)-c1nnnn1-c1ccccc1O2
209 to 211 °C

====

Let's look at some compounds and their measured melting point.

Examples with their reported melting point follow.
CCC(CC)Nc1ccc2c(c1)N1CCCN=C1S2	114 °C
CC(C)(C)OC(=O)C1CCN(C(=O)C2CN(c3ccc(-c4noc(=O)[nH]4)cc3)C(=O)O2)CC1 (centres undefined)	171 to 175 °C
O=C1N=C2C=CC=CN2C1(Cc1ccccc1)Cc1ccc(F)cc1 (centres undefined)	> 300 °C

Return melting point (reported value) for this compound: COc1ccc(NC(=O)c2ccc(F)c(F)c2)cc1NS(=O)(=O)c1cccc(N)c1
205 to 209 °C

Return melting point (reported value) for this compound: CC(=O)NCC=Cc1ccc2ncnc(Nc3ccc(Oc4ccc(C)nc4)c(Cl)c3)c2c1
254 to 256 °C

Return melting point (reported value) for this compound: CNC(=O)Nc1cc(OC)c(-c2ccc(C[C@H](NC(=O)c3c(Cl)cccc3Cl)C(=O)O)cc2)c(OC)c1
206 to 207 °C

Return melting point (reported value) for this compound: Brc1ccc2cc(Cc3cc4ccc(Br)cc4o3)oc2c1
146 to 147 °C

Return melting point (reported value) for this compound: CNS(=O)(=O)N1CC2(CCN(C(=O)Nc3nnc(-c4ccccc4)s3)CC2)c2ccccc21
230 to 231 °C

Return melting point (reported value) for this compound: Cn1nnc2c(N3CCOCC3)nc(Cl)nc21
168 °C

Return melting point (reported value) for this compound: BrCc1ccc2c(c1)C1(c3ccccc3-2)c2ccccc2-c2ccc(CBr)cc21
175 to 177 °C

Return melting point (reported value) for this compound: Fc1cccc(F)c1-c1ccc2cccnc2n1
100 to 103 °C

Return melting point (reported value) for this compound: COc1cc(C(=O)NS(=O)(=O)c2ccccc2C)ccc1Cc1c(Cl)n(C)c2ccc(CC3CCN(C)C3=O)cc12 (centres undefined)
129 to 133 °C

Return melting point (reported value) for this compound: CCCCOCCOc1ccc(-c2ccc3c(c2)C=C(C(=O)Nc2ccc(CCCn4cnnc4)cc2)CCN3CCC)cc1
191 to 194 °C

Return melting point (reported value) for this compound: CCCNc1nc(-c2ccccc2)c(CCC(=O)OC)s1
67 to 68 °C

Return melting point (reported value) for this compound: O=CNc1nc2ccc([N+](=O)[O-])cc2s1
248 to 251 °C
